target or system: T1, recombinant human GREM1 (hGREM1-His; C-terminal 10His tagged, R&D, #5190-GR) (human, UniProt O60565 25-184)
T1 construct: range 25-184; also called recombinant human GREM1 with a C-terminal decahistidine tag
T1 sequence: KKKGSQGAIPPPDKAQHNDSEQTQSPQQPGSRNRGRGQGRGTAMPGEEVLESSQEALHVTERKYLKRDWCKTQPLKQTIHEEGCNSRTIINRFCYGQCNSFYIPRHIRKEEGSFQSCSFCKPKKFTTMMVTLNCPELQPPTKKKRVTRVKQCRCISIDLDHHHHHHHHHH
assay text: BLI Octet, mAb captured, 100 nM GREM1 without vs with 5 uM heparin;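 further: octet Red96 biolayer interferometry at 25 °C, antibodies captured on anti-human IgG Fc biosensors, association of GREM1 measured with versus without heparin in HEPES-buffered saline, pH 7.4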
measured quantity: Reduction in Signal from Heparin at 300 sec
Please state the value followed by its unit.

Respectfully, I request Reduction in Signal from Heparin at 300 sec for each entry included below.
1. H4H6251P (antibody, human IgG4, V domains shown, H4H prefix = human IgG4 Fc) VH: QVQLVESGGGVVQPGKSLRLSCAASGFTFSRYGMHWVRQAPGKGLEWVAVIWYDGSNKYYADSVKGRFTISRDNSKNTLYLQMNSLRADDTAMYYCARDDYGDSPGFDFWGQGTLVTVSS VL: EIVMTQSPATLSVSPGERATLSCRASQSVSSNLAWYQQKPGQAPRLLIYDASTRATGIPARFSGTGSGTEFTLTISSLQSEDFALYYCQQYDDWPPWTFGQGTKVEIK
2. H4H2895N (antibody, human IgG4, V domains shown, H4H prefix = human IgG4 Fc) VH: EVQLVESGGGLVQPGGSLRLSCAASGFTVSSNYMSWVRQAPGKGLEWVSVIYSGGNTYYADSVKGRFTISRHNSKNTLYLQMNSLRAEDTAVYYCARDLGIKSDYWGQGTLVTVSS VL: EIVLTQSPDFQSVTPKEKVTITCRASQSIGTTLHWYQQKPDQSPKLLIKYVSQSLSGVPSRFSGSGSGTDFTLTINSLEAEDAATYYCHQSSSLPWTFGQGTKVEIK
3. H4H2926N (antibody, human IgG4, V domains shown, H4H prefix = human IgG4 Fc) VH: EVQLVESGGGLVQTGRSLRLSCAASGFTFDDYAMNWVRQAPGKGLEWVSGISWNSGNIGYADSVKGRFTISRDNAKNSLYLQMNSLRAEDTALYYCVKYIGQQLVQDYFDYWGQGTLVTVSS VL: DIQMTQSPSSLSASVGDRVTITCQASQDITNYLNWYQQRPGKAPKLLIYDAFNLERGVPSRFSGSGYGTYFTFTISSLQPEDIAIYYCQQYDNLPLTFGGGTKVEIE

1. 0.09 nm
2. -0.04 nm
3. 0.07 nm
